# ASSAY TARGET: T1, human Claudin 18.2 (CLDN 18.2) expressed on HEK293 / HEK293T cells (human)
# T1 construct: Full-length CLDN18.2 on transiently or stably transfected HEK293/HEK293T cells; also called CLD18.2
# T1 sequence (chain, as listed by the source limits assumed): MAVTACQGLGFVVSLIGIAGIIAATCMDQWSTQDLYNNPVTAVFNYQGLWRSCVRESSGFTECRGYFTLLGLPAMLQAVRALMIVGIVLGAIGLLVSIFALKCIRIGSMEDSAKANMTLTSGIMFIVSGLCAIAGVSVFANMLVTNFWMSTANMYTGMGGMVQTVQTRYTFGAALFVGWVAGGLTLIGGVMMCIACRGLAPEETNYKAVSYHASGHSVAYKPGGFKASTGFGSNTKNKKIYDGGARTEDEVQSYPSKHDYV
# METHOD DESCRIPTION: cell-based ELISA (InCell Elisa) on fixed HEK293_CLDN18.2 cells, y axis RLU; Kd table under the graph, no unit in the table, unit from the x axis log[antibody] ug/ml
ASSAY METRIC: Kd (µg/mL)
Lab book: enter the figure in µg/mL, no units written.

humanized anti-Claudin 18.2 antibody h5C9oan (antibody, human IgG1, kappa, V domains shown) VH: EVQLVESGGGLVQPGGSLRLSCAVSGYTFSMNWVRQAPGKGLEWVAWINMYTGEPTYADDFKGRFTISRDDSKNTLYLQMNSLRAEDTAVYYCARSSRGNGFDYWGQGTLVTVSS VL: DIQMTQSPSSLSASVGDRVTITCKSSQSLLNSGNQKSYLTWYQQKPGKAPKLLIYWASTLESGVPSRFSGSGSGTDYTLTISSLQPEDFATYYCQNAYFFPFTFGQGTKVEIKR	0.194
humanized anti-Claudin 18.2 antibody h5C9oao (antibody, human IgG1, kappa, V domains shown) VH: EVQLVESGGGLVQPGGSLRLSCAVSGYTFSMNWVRQAPGKGLEWVAWINMYTGEPTYADDFKGRFTISRDDSKNTLYLQMNSLRAEDTAVYYCARLARGNSMDYWGQGTLVTVSS VL: DIQMTQSPSSLSASVGDRVTITCKSSQSLLNSGNQKSYLTWYQQKPGKAPKLLIYWASTLESGVPSRFSGSGSGTDYTLTISSLQPEDFATYYCQNAYFFPFTFGQGTKVEIKR	0.154

Entry Anti-CLDN 18.2-5C9oai (humanized antibody h5C9oai) (antibody, human IgG1, V domains shown, the general method uses human IgG1 constant domains) VH: EVQLVESGGGLVQPGGSLRLSCAVSGYTFSMNWVRQAPGKGLEWVAWINMYTGEPTYADDFKGRFTISRDDSKNTLYLQMNSLRAEDTAVYYCARLARGNSMDYWGQGTLVTVSS VL: DIQMTQSPSSLSASVGDRVTITCKSSQSLLNSGNQKSYLTWYQQKPGKAPKLLIYWASTLESGVPSRFSGSGSGTDYTLTISSLQPEDFATYYCQNAYSFPFTFGQGTKVEIK : reported Kd = ? 0.18
